B1: CDS2 (parent)
chain: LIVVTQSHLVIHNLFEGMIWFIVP

- Variants of: B1
- Protocol Details: protein stability index of a GFP-peptide fusion (GPS, HEK-293T) (PSI 1-6); higher = more stable;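 note: lentivirally expressed fusions sorted by FACS into six bins by GFP to DsRed ratio, PSI derived from sequencing read proportions per bin multiplied by bin number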
- Test Parameters: c terminus: a fixed tail appended

Var | protein stability index
V23Y | 3.02
G17D | 2.93
I2V | 3.01
L14T | 3.05
L14E | 2.99
L14D | 3.03
